Molecular target: T1, full-length wild-type Ste2p (Saccharomyces cerevisiae, UniProt D6VTK4 1-431)
T1 sequence (looked up): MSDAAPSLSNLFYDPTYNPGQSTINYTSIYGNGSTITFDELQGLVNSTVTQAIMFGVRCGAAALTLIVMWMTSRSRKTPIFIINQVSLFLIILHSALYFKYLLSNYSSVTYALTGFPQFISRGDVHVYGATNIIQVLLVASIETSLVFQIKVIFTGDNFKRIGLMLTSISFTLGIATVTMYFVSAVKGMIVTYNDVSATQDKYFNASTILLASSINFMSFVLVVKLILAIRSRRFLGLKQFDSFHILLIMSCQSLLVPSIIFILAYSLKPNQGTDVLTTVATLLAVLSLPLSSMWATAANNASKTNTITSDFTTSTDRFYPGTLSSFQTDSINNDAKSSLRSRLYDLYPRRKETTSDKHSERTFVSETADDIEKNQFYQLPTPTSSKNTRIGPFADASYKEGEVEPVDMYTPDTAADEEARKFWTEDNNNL
Assay: flow cytometry on cells
MEASURED_PARAMETER: Kd (nM)
I only need the number, in nM, no unit after it.

Q. # return recorded Kd for entry WHWLQLKPGQPMY (NBD (7-nitrobenz-2-oxa-1,3-diazol-4-yl) conjugated to the lysine at position 7; norleucine at position 12 in place of methionine) [[K^7(NBD),Nle^12] α-factor]
A. 7.3
